// reported glycan array binding signal (z-score) per item
targetDesc: Gal(b1-3)[Neu5Ac(a2-6)]GlcNAc(b1-6)Gal(b1-4)Glc
testName: glycan array binding signal (z-score within array); higher = stronger binding
experimentalSetup: glycan notation: IUPAC condensed, linker removed
Many of the other results were omitted from the sample, so the strongest signals are more common in it than they were.
assayReadout: glycan array binding signal (z-score)

Intelectin-1a (Mus musculus) (protein) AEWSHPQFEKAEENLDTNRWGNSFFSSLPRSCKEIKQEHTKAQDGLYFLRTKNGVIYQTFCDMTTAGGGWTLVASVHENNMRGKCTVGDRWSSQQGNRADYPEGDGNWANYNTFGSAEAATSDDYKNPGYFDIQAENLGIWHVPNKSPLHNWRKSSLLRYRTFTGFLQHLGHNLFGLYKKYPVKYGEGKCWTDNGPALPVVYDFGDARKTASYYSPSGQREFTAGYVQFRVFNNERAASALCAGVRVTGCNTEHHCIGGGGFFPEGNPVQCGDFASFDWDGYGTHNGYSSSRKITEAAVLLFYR    0.312
Gal 1 (Mus musculus), P16045 (protein) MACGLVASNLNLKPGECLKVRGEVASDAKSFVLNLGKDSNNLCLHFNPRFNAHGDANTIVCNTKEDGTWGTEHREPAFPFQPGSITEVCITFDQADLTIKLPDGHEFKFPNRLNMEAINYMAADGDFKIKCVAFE    -0.078
Gal 4 (Mus musculus), P56470 (protein) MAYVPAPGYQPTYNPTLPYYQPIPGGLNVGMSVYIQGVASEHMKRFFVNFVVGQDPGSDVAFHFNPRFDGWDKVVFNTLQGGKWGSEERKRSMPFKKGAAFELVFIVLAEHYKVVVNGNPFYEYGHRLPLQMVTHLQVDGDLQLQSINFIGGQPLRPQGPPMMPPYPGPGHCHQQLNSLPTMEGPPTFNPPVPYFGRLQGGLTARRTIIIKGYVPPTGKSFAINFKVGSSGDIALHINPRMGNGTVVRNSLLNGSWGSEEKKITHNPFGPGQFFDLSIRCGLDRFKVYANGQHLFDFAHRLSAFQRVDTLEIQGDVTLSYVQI    -0.176
Calsepa (Calystegia sepium), P93114 (protein) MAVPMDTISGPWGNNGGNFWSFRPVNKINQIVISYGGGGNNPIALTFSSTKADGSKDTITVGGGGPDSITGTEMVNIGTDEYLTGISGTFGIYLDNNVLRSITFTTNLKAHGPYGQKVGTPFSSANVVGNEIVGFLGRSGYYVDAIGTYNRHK    -0.248
AICL (Homo sapiens), Q92478 (protein) MMTKHKKCFIIVGVLITTNIITLIVKLTRDSQSLCPYDWIGFQNKCYYFSKEEGDWNSSKYNCSTQHADLTIIDNIEEMNFLRRYKCSSDHWIGLKMAKNRTGQWVDGATFTKSFGMRGSEGCAYLSDDGAATARCYTERKWICRKRIH    -0.359
LKPARMA (Neurospora crassa) (protein) MSFHVTAEDARRIEVRDNRTILFARLRREDGEWNDASYELDQIIGNNDGHFQWGGGQNFTETAEDIRFHPKEGAAEQPILRARLRDCNGEFHDRDVNLTEIVENVNGEFQAKF    5.09
AMA (Arum maculatun) (protein) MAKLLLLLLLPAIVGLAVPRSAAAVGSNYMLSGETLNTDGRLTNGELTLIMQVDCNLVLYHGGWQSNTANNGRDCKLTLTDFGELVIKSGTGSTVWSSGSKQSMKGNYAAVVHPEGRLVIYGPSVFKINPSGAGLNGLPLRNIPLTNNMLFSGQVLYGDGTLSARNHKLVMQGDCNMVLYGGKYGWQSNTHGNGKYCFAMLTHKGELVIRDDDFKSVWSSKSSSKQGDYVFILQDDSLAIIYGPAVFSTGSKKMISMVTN    -0.198
TbCVNHOb (Tuber borchii) (protein) MSFYASSEDVRTIEEGGRTWLVGRARRADGSWQDIKLDLDNIIGNRDGHLTWGEQNFTQSASDIRFNFEGGSNVPVLRAKLRNAAGGEQESDLNLGERLTNNNGDLVFN    1.4
OrysaEULS2 (Oryza sativa) (protein) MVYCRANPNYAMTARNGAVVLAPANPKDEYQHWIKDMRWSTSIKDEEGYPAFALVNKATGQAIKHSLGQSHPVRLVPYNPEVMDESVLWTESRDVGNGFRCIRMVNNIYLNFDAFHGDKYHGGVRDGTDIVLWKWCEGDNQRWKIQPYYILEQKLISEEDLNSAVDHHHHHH    -0.179
Gal 2 (Canis lupus) (protein) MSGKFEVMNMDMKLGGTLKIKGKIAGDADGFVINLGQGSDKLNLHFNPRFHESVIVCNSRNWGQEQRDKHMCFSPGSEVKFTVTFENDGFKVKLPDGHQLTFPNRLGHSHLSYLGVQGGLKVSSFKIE    -0.068
